All figures here come from patent US20240349727A1.

- System: Botrytis cinerea
- Assay protocol: In vitro fungitoxic activity, 48-well PDA outgrowth, curative
- Format: cell-based
- Study conditions: 168 h, read-out: EC50 fungicide
pEC50: −log10 of the molar value.
Readout kind: pEC50

1. CCCCCCCCCCCCNC(=N)N = 3.72

* * *

- Test system: Lasiodiplodia pseudotheobromae
- Assay protocol: In vitro fungitoxic activity, 48-well PDA outgrowth, curative (Example 2)
- Format: cell-based
- Study conditions: 168 h, fungicide alone, curative, 7 days at room temperature, read-out: EC50 fungicide
Readout kind: EC50 (µM)

1) CC(C)(C)C(O)(CCc1ccc(Cl)cc1)Cn1cncn1 (centres unmarked) [Tebuconazole] = 300
2) Cc1cc(C2CC2)nc(Nc2ccccc2)n1 [Cyprodinil] = 9
